Please respond with reported Log Reduction PFU/ml (standard deviation), FCV for every item in the list.
Tested on: Feline Calicivirus (FCV)
measurement protocol: Inactivation of FCV by levulinic acid plus SDS in solution, plaque assay
run parameters: 21° C., 1 min; sulfate

Worked cases, Log Reduction PFU/ml (standard deviation), FCV given:
CCCCCCCCCCCCOS(=O)(=O)[O-].[Na+] [0.05% SDS, sodium dodecyl sulfate] :: −0.12 (±0.23) log PFU/ml
CCCCCCCCCCCCOS(=O)(=O)[O-].[Na+] [2% SDS, sodium dodecyl sulfate] :: −0.05 (±0.22) log PFU/ml
CCCCCCCCCCCCOS(=O)(=O)[O-].[Na+] [0.5% SDS, sodium dodecyl sulfate] :: −0.09 (±0.27) log PFU/ml

Now for a further compound.
Param item: CCCCCCCCCCCCOS(=O)(=O)[O-].[Na+] [1% SDS, sodium dodecyl sulfate] ; param system: Feline Calicivirus (FCV); output Log Reduction PFU/ml (standard deviation), FCV: −0.05 (±0.18) log PFU/ml

----------
Test system: Murine norovirus (MNV-1)
measurement protocol: Inactivation of MNV-1 by levulinic acid plus SDS in solution, plaque assay
run parameters: 21° C., 1 min; sulfate
recorded metric: Log Reduction PFU/ml (standard deviation), MNV-1

CCCCCCCCCCCCOS(=O)(=O)[O-].[Na+] [0.05% SDS, sodium dodecyl sulfate] :: −0.13 (±0.26) log PFU/ml
CCCCCCCCCCCCOS(=O)(=O)[O-].[Na+] [1% SDS, sodium dodecyl sulfate] :: 0.03 (±0.12) log PFU/ml
CCCCCCCCCCCCOS(=O)(=O)[O-].[Na+] [2% SDS, sodium dodecyl sulfate] :: −0.23 (±0.59) log PFU/ml

Now for a further molecule.
Param item: CCCCCCCCCCCCOS(=O)(=O)[O-].[Na+] [0.5% SDS, sodium dodecyl sulfate] ; param system: Murine norovirus (MNV-1); output Log Reduction PFU/ml (standard deviation), MNV-1: 0.13 (±0.20) log PFU/ml
